Origin of measurements: patent US20200377595A1

- target: T1, biotin labeled human IgG1 Fc (human, UniProt P01857-1 104-330 = IgG part, limits assumed, biotin-labeled)
- T1 construct: domain: Fc region; control antigen; also called human Fc
- procedureSummary: bead ELISA, IgG
Kindly state RLU for each of the entries shown.
Respond numerically; units are RLU and should not be typed.

Req: Consider the binder DXDU01_3#094 (antibody, IgG1, V domains shown, IgG1; also called dBBDu121) VH: QVQLVESGGGLVQPGRSLRLSCAASGFTFSNAWMHWVRQAPGKGLEWVAQIKDKGNAYAAYYAPSVKGRFTISRDDSKNSIYLQMNSLKTEDTAVYYCHYVHYASAAGGLPGFGVDAWGQGTTVTVSS VL: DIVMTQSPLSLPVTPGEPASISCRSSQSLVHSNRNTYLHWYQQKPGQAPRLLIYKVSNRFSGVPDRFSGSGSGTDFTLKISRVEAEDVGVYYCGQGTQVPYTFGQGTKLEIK and give its measured RLU.
Resp: 2370

Req: // query: DXDU01_3#051 (antibody, IgG1, V domains shown, IgG1; also called dBBDu127) VH: QVQLVESGGGLVQPGRSLRLSCAASGFTFSNAWMHWVRQAPGKGLEWVAQIKDRGQQYNAYYAPSVKGRFTISRDDSKNSIYLQMNSLKTEDTAVYYCHYVHYASASSVLPGYGVDAWGQGTTVTVSS VL: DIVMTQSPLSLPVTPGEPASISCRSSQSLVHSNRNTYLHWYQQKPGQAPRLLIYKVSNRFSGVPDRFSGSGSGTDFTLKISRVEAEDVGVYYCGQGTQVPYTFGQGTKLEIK
Resp: 2910

Req: Let us now turn to DADU01_3#002 (antibody, IgG1, V domains shown, IgG1; also called dBBDu124) VH: QVQLVESGGGLVQPGRSLRLSCAASGFTFSNAWMHWVRQAPGKGLEWVAQIKDKQNLYNAYYAESVKGRFTISRDDSKNSIYLQMNSLKTEDTAVYYCHYVHYASASTVLPAFGVDAWGQGTTVTVSS VL: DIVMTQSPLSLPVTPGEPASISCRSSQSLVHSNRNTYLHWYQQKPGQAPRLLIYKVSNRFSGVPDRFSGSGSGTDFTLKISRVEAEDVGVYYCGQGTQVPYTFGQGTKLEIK
Resp: 1920

Req: What about DXDU01_3#019 (antibody, IgG1, V domains shown, IgG1; also called dBBDu125) VH: QVQLVESGGGLVQPGRSLRLSCAASGFTFSIAWMHWVRQAPGKGLEWVAQIKDKVNGYTAYYAESVKGRFTISRDDSKNSIYLQMNSLKTEDTAVYYCRYVHYAAYYDVLGYGGVDAWGQGTTVTVSS VL: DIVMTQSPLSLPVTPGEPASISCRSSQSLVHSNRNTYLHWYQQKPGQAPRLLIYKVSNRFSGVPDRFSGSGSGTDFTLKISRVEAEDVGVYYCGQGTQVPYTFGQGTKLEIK ?
Resp: 3260

Req: Likewise for DADU01_3#018 (antibody, IgG1, V domains shown, IgG1; also called dBBDu123) VH: QVQLVESGGGLVQPGRSLRLSCAASGFTFSNAWMHWVRQAPGKGLEWVAQIKDRANSYNAYYAPSVKGRFTISRDDSKNSIYLQMNSLKTEDTAVYYCHYVHYSAASTLLPSFGVDAWGQGTTVTVSS VL: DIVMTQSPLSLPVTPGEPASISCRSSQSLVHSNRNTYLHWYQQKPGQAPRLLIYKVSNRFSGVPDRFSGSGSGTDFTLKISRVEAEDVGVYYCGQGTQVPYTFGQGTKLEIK ?
Resp: 1900

Req: Next record, please: DADU01_3#001 (antibody, IgG1, V domains shown, IgG1; also called dBBDu_126; dBBDu126) VH: QVQLVESGGGLVQPGRSLRLSCAASGFTFSIAWMHWVRQAPGKGLEWVAQIKDRVNAYEAYYAPSVKGRFTISRDDSKNSIYLQMNSLKTEDTAVYYCRYVHYASYYDLLGYGGVDAWGQGTTVTVSS VL: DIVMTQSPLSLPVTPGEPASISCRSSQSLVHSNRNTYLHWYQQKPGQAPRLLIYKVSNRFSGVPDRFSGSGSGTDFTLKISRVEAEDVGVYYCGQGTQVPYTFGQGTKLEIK
Resp: 1760
